Where do the numbers come from? From PubChem BioAssay (NCI).

Would you kindly list TGI for each of these compounds?
- Tested on: HCT-15 colon
- methodNotes: NCI tumour cell line growth inhibition, 48 h

IN: Answer with the recorded TGI of N#Cc1c(C(=O)c2ccccc2)cnn1-c1ccccc1 only.
OUT: > 25 µM

IN: Answer with the recorded TGI of COP(=O)(OC)C(NC(c1ccccc1)c1ccccc1)c1ccc2c(c1)OCO2 (stereo not given) only.
OUT: 95.1 µM

IN: Answer with the recorded TGI of C[C@]12CCC3[C@@H](C[C@@H]4SC(Nc5ccccc5)=N[C@@]45CC(=O)CC[C@]35C)[C@@H]1CCC2=O (stereo not given in full) only.
OUT: 9.71 µM

IN: Answer with the recorded TGI of COC(C/C=C\C=C\CC/C=C/CC(C)/C=C/C(=C\C(=O)O)CC(=O)O)/C(C)=C\C=C(/C)C(=O)O (stereo not given) only.
OUT: > 100 µM

IN: Answer with the recorded TGI of Cc1c(N=Nc2ccc([N+](=O)[O-])cc2)nc2scc(-c3ccccc3)n12 only.
OUT: > 92.2 µM

IN: Answer with the recorded TGI of O=C1CCc2cc3c(cc21)C(C(=O)O)CC3 (stereo not given) only.
OUT: > 100 µM

IN: Answer with the recorded TGI of C=C(C)[C@@H]1CC[C@]2(C(=O)OC3OC(COC4OC(CO)C(OC5OC(C)C(O)C(O)C5O)C(O)C4O)C(O)C(O)C3O)CC[C@]3(C)[C@H](CC[C@@H]4[C@@]5(C)CC[C@H](O)[C@@](C)(CO)[C@@H]5CC[C@]43C)[C@@H]12 (stereo not given in full) only.
OUT: > 9.68 µM

IN: Answer with the recorded TGI of Oc1ccc(/C=N\Nc2ccccn2)c(O)c1 only.
OUT: > 100 µM

IN: Answer with the recorded TGI of Cc1ccc(C2(N3CCOCC3)OC(C)(C)c3cccc4cccc2c34)cc1 (stereo not given) only.
OUT: 40 µM

IN: Answer with the recorded TGI of CC(C)NCCNC(=O)c1ccccc1Nc1c(Cl)cccc1Cl only.
OUT: 26.5 µM

IN: Answer with the recorded TGI of N#CC(NNC(=O)c1ccccc1O)c1ccc(O)cc1 (stereo not given) only.
OUT: > 100 µM

IN: Answer with the recorded TGI of NNc1nnc(-c2ccccc2)nc1Cc1ccccc1 only.
OUT: > 100 µM

IN: Answer with the recorded TGI of O=C1/C(=C/c2cccs2)N=C(c2ccccc2)N1c1nc2ccccc2s1 only.
OUT: > 100 µM

IN: Answer with the recorded TGI of CCC(=O)Nc1ccc(N2C(=O)/C(=C/c3ccc(O)c(OC)c3)N=C2c2ccccc2)cc1 only.
OUT: > 100 µM

IN: Answer with the recorded TGI of O=c1c2ccccc2c2ccccc2c(=O)n1-c1cc2c3ccccc3ccc2c2ccccc12 only.
OUT: > 100 µM

IN: Answer with the recorded TGI of NC(=O)c1cnc(N[C@@H]2CCCC[C@@H]2N)nc1Nc1cccc(-n2nccn2)c1 only.
OUT: 14.9 µM

IN: Answer with the recorded TGI of COc1ccc(/C=N/N=C(\N)NO)c(OC)c1OC only.
OUT: > 100 µM

IN: Answer with the recorded TGI of COCCN(C(=O)c1ccccc1)C1CCC(=O)c2[nH]c3ccccc3c21 (stereo not given) only.
OUT: 31.9 µM

IN: Answer with the recorded TGI of O=C(O)CNc1c2ccccc2nc2ccccc12 only.
OUT: > 100 µM

IN: Answer with the recorded TGI of CC(C)Oc1cc2c(cc1O)CC[C@@H]1[C@@H]2CC[C@]2(C)[C@@H](O)CC[C@@H]12 only.
OUT: 19.1 µM
